# experimental_details: inhibitors of MT1-MMP promoter transcription, cell-based, luciferase reporter, luminescence (AID 618);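 also: actives suppress MT1-MMP promoter-driven transcription so potencies describe inhibitors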
# recorded_conditions: MT1-MMP promoter luciferase reporter cells
The campaign covered roughly 87,000 compounds. About 540 (0.62%) were called active. No rule for the calls is given here. The full list was thinned out, with actives kept by preference. Results with a measured potency or affinity are listed apart.
Respond only with the outcome that fits, drawn from active, inactive

## Task Field: outcome | Entry: Cc1nnc2n(C3CCCCC3)c(=O)c3c4c(sc3n12)CCC4
## Result inactive

## Task Could you kindly confirm the outcome this assay logged for O=C(CN(CC1CCCO1)C(=O)CCC(=O)Nc1nccs1)NCc1ccc2c(c1)OCO2 (stereo unspecified) ?
## Result inactive

## Task Hi, sorry to bother you, what did the test record for CC(=O)N1CCc2cc(S(=O)(=O)CCC(=O)O)ccc21 ?
## Result inactive

## Task Hi, sorry to bother you, what did the test record for CCOC(=O)N1CCN(C(=O)c2ccc(N(Cc3ccc(C)cc3)S(C)(=O)=O)cc2)CC1 ?
## Result inactive

## Task # lookup: test call for CCN1CC=C2C(C#N)=C(N)C(C#N)(C#N)[C@H](c3ccoc3)[C@H]2C1
## Result inactive

## Task Status in this test for CCOC(=O)C(NS(=O)(=O)c1ccc(Br)cc1)C(C)C (stereo unspecified) ?
## Result inactive

## Task In this assay, the call recorded for COc1ccc2nc(-c3ccccc3)[nH]c2c1 was what?
## Result active

## Task I would be grateful if you could indicate the recorded call for COc1ccc2nc(-c3cccc(N)c3)[nH]c2c1 .
## Result inactive

## Task Tell me the recorded outcome of this test for O=C1CCCCCN1C(=O)c1cccc(C(=O)N2CCCCCC2=O)c1 .
## Result inactive

## Task Fill in: this test's call for O=C1CCCCCN1C(=O)c1ccc(C(=O)N2CCCCCC2=O)cc1 is ___
## Result inactive

## Task Recorded test outcome, item COc1ccc(OCc2nc3ccccc3[nH]2)cc1
## Result inactive
